tested on: lambsquarters (Chenopodium album); test: Postemergence herbicidal activity in oilseed rape (canola), lambsquarters; format: in vivo; design: unit: g ai/ha; details: oilseed rape (canola) test, visual rating after 21 d, probit analysis, dose to kill or control 80 percent
Listed molecules paired with reported CHEAL GR80

Sample records with CHEAL GR80:
>  <molecule>
C=CCONC(=O)c1nc(-c2ccc(Cl)c(OC)c2F)c(F)c(N)c1Cl [Compound 39]

>  <CHEAL GR80>
49

$$$$
>  <molecule>
CCONC(=O)c1nc(-c2ccc(Cl)c(OC)c2F)cc(N)c1Cl [Compound 4]

>  <CHEAL GR80>
11

$$$$
>  <molecule>
COc1c(Cl)ccc(-c2nc(C(=O)NOC3CCCCO3)c(Cl)c(N)c2F)c1F (stereo not drawn) [Compound 48]

>  <CHEAL GR80>
18

$$$$
>  <molecule>
CONC(=O)c1nc(-c2ccc(Cl)c(OC)c2F)cc(N)c1Cl [Compound 2]

>  <CHEAL GR80>
22

$$$$
>  <molecule>
COc1c(Cl)ccc(-c2cc(N)c(Cl)c(C(=O)NOCC(C)C)n2)c1F [Compound 1]

>  <CHEAL GR80>
<8.75

$$$$

Note: attention shifts to another entry.
query: # query: CHEAL GR80 of entry C/C=C/CONC(=O)c1nc(-c2ccc(Cl)c(OC)c2F)cc(N)c1Cl [Compound 30]
result: <8.75

###

system: wild buckwheat (Polygonum convululus); experiment: General postemergence herbicidal activity, wild buckwheat; format: in vivo; conditions: post-emergence, 336 h, 140 g ai/ha, postemergence, after 14 d, 0 = no injury, 100 = complete kill, read-out: POLCO % Visual Injury
readout kind: pest or weed control at 140 g/ha (%)
Form entry: value (%) — number only.

>  <molecule>
COc1c(Cl)ccc(-c2cc(N)c(Cl)c(C(=O)NOC3C=CCCC3)n2)c1F (centres unmarked) [Compound 18]

>  <pest or weed control at 140 g/ha [%]>
100

$$$$
>  <molecule>
CC/C=C/CONC(=O)c1nc(-c2ccc(Cl)c(OC)c2F)cc(N)c1Cl [Compound 45]

>  <pest or weed control at 140 g/ha [%]>
100

$$$$
>  <molecule>
COc1c(Cl)ccc(-c2cc(N)c(Cl)c(C(=O)NOCc3ccoc3)n2)c1F [Compound 43]

>  <pest or weed control at 140 g/ha [%]>
100

$$$$
>  <molecule>
COc1c(Cl)ccc(-c2cc(N)c(Cl)c(C(=O)NOC(C)(C)C)n2)c1F [Compound 21]

>  <pest or weed control at 140 g/ha [%]>
95

$$$$
>  <molecule>
C=CCON(C(C)=O)C(=O)c1nc(-c2ccc(Cl)c(OC)c2F)nc(N)c1C=C [Compound 9]

>  <pest or weed control at 140 g/ha [%]>
80

$$$$
>  <molecule>
C=CCONC(=O)c1nc(-c2ccc(Cl)c(OC)c2F)nc(N)c1OC [Compound 35]

>  <pest or weed control at 140 g/ha [%]>
90

$$$$
>  <molecule>
C=CCON(C)C(=O)c1nc(-c2ccc(Cl)c(OC)c2F)cc(N)c1Cl [Compound 26]

>  <pest or weed control at 140 g/ha [%]>
95

$$$$
>  <molecule>
COc1c(Cl)ccc(-c2cc(N)c(Cl)c(C(=O)N3CCCO3)n2)c1F [Compound 40]

>  <pest or weed control at 140 g/ha [%]>
100

$$$$

Now look at this entry.
query: Fill in the blank: the reported pest or weed control at 140 g/ha of COc1c(Cl)ccc(-c2cc(N)c(Cl)c(C(=O)NOCC3=CCCCC3)n2)c1F [Compound 44] is ____.
result: 100
